# target_or_system: Glutamate [NMDA] receptor
# protocol_text: Binding affinity against dextromethorpin binding site associated with N-methyl-D-aspartate glutamate receptor from guinea pig mitochondrial pellet P2 determined using [3H]1 as radioligand.
# Format: protein-complex assay, Cavia porcellus
measured_property: IC50 (nM)
Numbers only, in nM.

CN(C)c1ccc2c(c1)C13CCCCC1C(C2)N(C)CC3 (stereo unspecified)    680
CCCCOc1ccc2c(c1)C13CCCCC1C(C2)N(C)CC3 (stereo unspecified)    160
CN1CCC23CCCCC2C1Cc1ccc(N=C=S)cc13 (stereo unspecified)    440
CCOc1ccc2c(c1)C13CCCCC1C(C2)N(C)CC3 (stereo unspecified)    90
CNc1ccc2c(c1)C13CCCCC1C(C2)N(C)CC3 (stereo unspecified)    480

Now examine the next entry.
Lab note: measured IC50 of CN1CCC23CCCCC2C1Cc1ccc(Cl)cc13 (stereo unspecified) was 370

Data provenance: ChEMBL document CHEMBL1126312
